From: the RNAGym collection of RNA variant scans (doi:10.7554/elife.80360)

B1: HDV Ribozyme (parent)
chain: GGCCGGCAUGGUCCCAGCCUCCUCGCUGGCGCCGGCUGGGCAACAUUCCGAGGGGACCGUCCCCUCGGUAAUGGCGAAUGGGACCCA

Variants of: B1
ASSAY REMARKS: self-cleavage, relative activity (ratio to wild type); higher = more cleavage; co-transcriptional
Give measured self-cleavage for each item. Keep answers brief.

As a guide, the following entries are already answered.
A16C C44A :: 0.289
A8G A42G :: 0.68
U9C U72G :: 0.582

Items follow; give self-cleavage for each.
1. G17A A56C
2. U47A C57A
3. C44A C48U
4. U65A A71C
5. C58G C62U
6. U9G U23C
7. U20G C61G
8. C36U C61U

1. 0.847
2. 1.02
3. 0.692
4. 0.767
5. 0.73
6. 0.923
7. 0.0536
8. 0.726

Items follow; give self-cleavage for each.
1. C21G C24U
2. C15U A71G
3. C13A U60A
4. C15U C62U
5. C32U G38A

1. 0
2. 1.14
3. 0.214
4. 0.764
5. 0.216
